- MEASUREMENT_PROTOCOL: AUC (0 to infinity) in CD-1 mouse at 5 mg/kg, po by LC-MS/MS analysis
- Format: ADME, organism-based
- Parameters: time infinity, dose 5 mg/kg, route po
- MEASUREMENT_PARAMETERS: in vivo
# maps each entry to its AUC(0-inf)
Numbers only here, please. The scale is µM·h.

[
  {
    "COMPOUND_STRING": "Cc1cccc(Cl)c1CN1CCc2cc(-c3cnc(C)c([C@H](OC(C)(C)C)C(=O)O)c3N3CCC(C)(C)CC3)ccc2C1",
    "AUC(0-inf) [µM·h]": 43.1
  }
]

Looking for the measured AUC(0-inf) of `Cc1cccc(Cl)c1CN1CCc2cc(-c3c(C)nc(C)c([C@H](OC(C)(C)C)C(=O)O)c3N3CCC(C)(C)CC3)ccc2C1` , can you help?
30.3

* * *

As shown below, each of these compounds has a reported AUC(0-inf) value.
- MEASUREMENT_PROTOCOL: AUC (0 to infinity) in Beagle dog at 2 mg/kg, po by LC-MS/MS analysis
- Assay type: ADME, organism-based, Canis lupus familiaris
- Parameters: time infinity, dose 2 mg/kg, route po
- MEASUREMENT_PARAMETERS: in vivo
Enter your answer as a number in µM·h; do not include the unit.

[
  {
    "COMPOUND_STRING": "Cc1cccc(Cl)c1CN1CCc2cc(-c3c(C)nc(C)c([C@H](OC(C)(C)C)C(=O)O)c3N3CCC(C)(C)CC3)ccc2C1",
    "AUC(0-inf) (µM·h)": 104
  }
]

Lab note: next compound to report on.
Name the recorded AUC(0-inf) for `Cc1cccc(Cl)c1CN1CCc2cc(-c3cnc(C)c([C@H](OC(C)(C)C)C(=O)O)c3N3CCC(C)(C)CC3)ccc2C1` .
24.2

* * *

- Test system: Human immunodeficiency virus 1
- MEASUREMENT_PROTOCOL: Antiviral activity against recombinant HIV1 NLRep-Rluc harbouring polymorphic A124/A125 integrase infected in human MT-2 cells assessed as inhibition of virus growth in presence of fetal bovine serum by measuring luciferase activity after 4 days
- Format: functional, organism-based
- MEASUREMENT_PARAMETERS: Human immunodeficiency virus 1, NLRep, MT2, 96 h
# pEC50 values compiled below
Just so you know, pEC50 here is -log10 of the concentration in molar units; reply with that number alone.

[
  {
    "COMPOUND_STRING": "Cc1cccc(Cl)c1CN1CCc2cc(-c3c(C)nc(C)c([C@H](OC(C)(C)C)C(=O)O)c3N3CCC(C)(C)CC3)ccc2C1",
    "RECORDED_NUMBER": 8.19
  }
]

# evaluate next
Kindly state the measured pEC50 obtained for `Cc1cccc(Cl)c1CN1CCc2cc(-c3cnc(C)c([C@H](OC(C)(C)C)C(=O)O)c3N3CCC(C)(C)CC3)ccc2C1` with Human immunodeficiency virus 1.
8.34

* * *

- MEASUREMENT_PROTOCOL: Clearance in Beagle dog at 1 mg/kg, iv by LC-MS/MS analysis
- Format: ADME, organism-based, Canis lupus familiaris
- MEASUREMENT_PARAMETERS: in vivo
Measured clearance, listed per entry.
Kindly provide the numeric value in mL/min/kg only, without the unit symbol.

[
  {
    "COMPOUND_STRING": "Cc1cccc(Cl)c1CN1CCc2cc(-c3cnc(C)c([C@H](OC(C)(C)C)C(=O)O)c3N3CCC(C)(C)CC3)ccc2C1",
    "clearance [mL/min/kg]": 2.2
  }
]

What value of measured clearance is listed for `Cc1cccc(Cl)c1CN1CCc2cc(-c3c(C)nc(C)c([C@H](OC(C)(C)C)C(=O)O)c3N3CCC(C)(C)CC3)ccc2C1` ?
0.5
